# assay-protocol: Evaluation of conversion rate to active form in buffer solution (Experimental Example 1)
# Assay type: physicochemical
# conditions-used: pH6.0, 0.5 hr
Each record here notes measured Production rate of Alvocidib.

>  <molecule>
CNCCN(C)C(=O)Oc1cc(O)c2c(=O)cc(-c3ccccc3Cl)oc2c1[C@H]1CCN(C)C[C@H]1O [Comparative Example 14, reference compound]

>  <Production rate of Alvocidib / %>
88.1

$$$$
>  <molecule>
CN1CC[C@H](c2c(O)cc(O)c3c(=O)cc(-c4ccccc4Cl)oc23)[C@H](OC(=O)[C@@H](N)CO)C1 [Comparative Example 9, reference compound]

>  <Production rate of Alvocidib / %>
17.1

$$$$
>  <molecule>
CN1CC[C@H](c2c(OC(=O)N(C)CCN)cc(O)c3c(=O)cc(-c4ccccc4Cl)oc23)[C@H](O)C1 [Comparative Example 13, reference compound]

>  <Production rate of Alvocidib / %>
23.8

$$$$
>  <molecule>
CNC(=O)Oc1cc(O)c2c(=O)cc(-c3ccccc3Cl)oc2c1[C@H]1CCN(C)C[C@H]1O [Comparative Example 2, reference compound]

>  <Production rate of Alvocidib / %>
95.7

$$$$
>  <molecule>
C[C@H](N)C(=O)O[C@@H]1CN(C)CC[C@@H]1c1c(O)cc(O)c2c(=O)cc(-c3ccccc3Cl)oc12 [Comparative Example 7, reference compound]

>  <Production rate of Alvocidib / %>
26.1

$$$$
>  <molecule>
CC(C)[C@H](N)C(=O)O[C@@H]1CN(C)CC[C@@H]1c1c(O)cc(O)c2c(=O)cc(-c3ccccc3Cl)oc12 [Comparative Example 10, reference compound]

>  <Production rate of Alvocidib / %>
4.4

$$$$

---

# assay-protocol: Evaluation of conversion rate to active form in buffer solution (Experimental Example 1)
# Assay type: physicochemical
# conditions-used: pH5.0, 0.5 hr, 37° C., 25 umol/L in buffer solution
Each entry below carries its recorded Production rate of Alvocidib.

>  <compound>
CCCN(CC1CCCCN1)C(=O)Oc1cc(O)c2c(=O)cc(-c3ccccc3Cl)oc2c1[C@H]1CCN(C)C[C@H]1O (stereo partly drawn)

>  <Production rate of Alvocidib (%)>
1.7

$$$$
>  <compound>
CN1CC[C@H](c2c(OC(=O)N(Cc3ccccc3)CC3CCCCN3)cc(O)c3c(=O)cc(-c4ccccc4Cl)oc23)[C@H](O)C1 (stereo partly drawn)

>  <Production rate of Alvocidib (%)>
1.9

$$$$
>  <compound>
CCCN(C[C@H]1CCCCN1)C(=O)Oc1cc(O)c2c(=O)cc(-c3ccccc3Cl)oc2c1[C@H]1CCN(C)C[C@H]1O

>  <Production rate of Alvocidib (%)>
0.9

$$$$
>  <compound>
CN1CC[C@H](c2c(OC(=O)N(C)C[C@H]3CCCCN3)cc(O)c3c(=O)cc(-c4ccccc4Cl)oc23)[C@H](O)C1

>  <Production rate of Alvocidib (%)>
0.8

$$$$
>  <compound>
CN1CC[C@H](c2c(OC(=O)N(C)C[C@@H]3CCCCN3)cc(O)c3c(=O)cc(-c4ccccc4Cl)oc23)[C@H](O)C1

>  <Production rate of Alvocidib (%)>
0.9

$$$$
>  <compound>
CN1CC[C@H](c2c(OC(=O)N(C)CC3CCCCN3)cc(O)c3c(=O)cc(-c4ccccc4Cl)oc23)[C@H](O)C1 (stereo partly drawn)

>  <Production rate of Alvocidib (%)>
1.2

$$$$

---

Quick reference: Production rate of Alvocidib of the listed items.
# assay-protocol: Evaluation of conversion rate to active form in buffer solution (Experimental Example 1)
# Type: physicochemical
# conditions-used: pH5.0, 0.5 hr

>  <molecule>
CN1CC[C@H](c2c(OC(=O)N(C)CCN)cc(O)c3c(=O)cc(-c4ccccc4Cl)oc23)[C@H](O)C1 [Comparative Example 13, reference compound]

>  <Production rate of Alvocidib [%]>
2.2

$$$$
>  <molecule>
CN1CC[C@H](c2c(O)cc(O)c3c(=O)cc(-c4ccccc4Cl)oc23)[C@H](OC(=O)CN)C1 [Comparative Example 8, reference compound]

>  <Production rate of Alvocidib [%]>
17.7

$$$$
>  <molecule>
CC(C)[C@H](N)C(=O)O[C@@H]1CN(C)CC[C@@H]1c1c(O)cc(O)c2c(=O)cc(-c3ccccc3Cl)oc12 [Comparative Example 10, reference compound]

>  <Production rate of Alvocidib [%]>
2.3

$$$$

---

# assay-protocol: Evaluation of conversion rate to active form in buffer solution (Experimental Example 1)
# Type: physicochemical
# conditions-used: pH7.4, 2 hr
Readings of Residual rate for the listed compounds

>  <compound>
CCOC(=O)O[C@@H]1CN(C)CC[C@@H]1c1c(O)cc(O)c2c(=O)cc(-c3ccccc3Cl)oc12 [Comparative Example 3, reference compound]

>  <Residual rate [%]>
90.1

$$$$
>  <compound>
CN1CC[C@H](c2c(O)cc(O)c3c(=O)cc(-c4ccccc4Cl)oc23)[C@H](OC(=O)CN)C1 [Comparative Example 8, reference compound]

>  <Residual rate [%]>
32.7

$$$$
>  <compound>
CC(C)[C@H](N)C(=O)O[C@@H]1CN(C)CC[C@@H]1c1c(O)cc(O)c2c(=O)cc(-c3ccccc3Cl)oc12 [Comparative Example 10, reference compound]

>  <Residual rate [%]>
82.9

$$$$

---

# assay-protocol: Evaluation of conversion rate to active form in buffer solution (Experimental Example 1)
# Assay type: physicochemical
# conditions-used: pH7.0, 1 hr
readout-type: Production rate of Alvocidib (%)

>  <compound>
CN1CC[C@H](c2c(OC(=O)N(C)CCN)cc(O)c3c(=O)cc(-c4ccccc4Cl)oc23)[C@H](O)C1 [Comparative Example 13, reference compound]

>  <readout-type>
Production rate of Alvocidib

>  <quantity-unit>
%

>  <measured-value>
89.7

$$$$
>  <compound>
CNC(=O)O[C@@H]1CN(C)CC[C@@H]1c1c(O)cc(O)c2c(=O)cc(-c3ccccc3Cl)oc12 [Comparative Example 5, reference compound]

>  <readout-type>
Production rate of Alvocidib

>  <quantity-unit>
%

>  <measured-value>
0.0

$$$$
>  <compound>
CCNC(=O)O[C@@H]1CN(C)CC[C@@H]1c1c(O)cc(O)c2c(=O)cc(-c3ccccc3Cl)oc12 [Comparative Example 4, reference compound]

>  <readout-type>
Production rate of Alvocidib

>  <quantity-unit>
%

>  <measured-value>
1.8

$$$$
>  <compound>
C[C@H](N)C(=O)O[C@@H]1CN(C)CC[C@@H]1c1c(O)cc(O)c2c(=O)cc(-c3ccccc3Cl)oc12 [Comparative Example 7, reference compound]

>  <readout-type>
Production rate of Alvocidib

>  <quantity-unit>
%

>  <measured-value>
64.3

$$$$
>  <compound>
CC(C)[C@H](N)C(=O)O[C@@H]1CN(C)CC[C@@H]1c1c(O)cc(O)c2c(=O)cc(-c3ccccc3Cl)oc12 [Comparative Example 10, reference compound]

>  <readout-type>
Production rate of Alvocidib

>  <quantity-unit>
%

>  <measured-value>
8.5

$$$$
>  <compound>
CCOC(=O)O[C@@H]1CN(C)CC[C@@H]1c1c(O)cc(O)c2c(=O)cc(-c3ccccc3Cl)oc12 [Comparative Example 3, reference compound]

>  <readout-type>
Production rate of Alvocidib

>  <quantity-unit>
%

>  <measured-value>
1.2

$$$$

---

# assay-protocol: Evaluation of conversion rate to active form in buffer solution (Experimental Example 1)
# Format: physicochemical
# conditions-used: pH6.5, 2 hr

>  <compound>
CCNC(=O)O[C@@H]1CN(C)CC[C@@H]1c1c(O)cc(O)c2c(=O)cc(-c3ccccc3Cl)oc12 [Comparative Example 4, reference compound]

>  <Production rate of Alvocidib (%)>
1.8

$$$$
>  <compound>
CN1CC[C@H](c2c(OC(=O)N(C)CCN)cc(O)c3c(=O)cc(-c4ccccc4Cl)oc23)[C@H](O)C1 [Comparative Example 13, reference compound]

>  <Production rate of Alvocidib (%)>
87.1

$$$$
>  <compound>
CNCCN(C)C(=O)Oc1cc(O)c2c(=O)cc(-c3ccccc3Cl)oc2c1[C@H]1CCN(C)C[C@H]1O [Comparative Example 14, reference compound]

>  <Production rate of Alvocidib (%)>
98.2

$$$$
>  <compound>
CN1CC[C@H](c2c(O)cc(O)c3c(=O)cc(-c4ccccc4Cl)oc23)[C@H](OC(=O)[C@@H](N)CO)C1 [Comparative Example 9, reference compound]

>  <Production rate of Alvocidib (%)>
49.6

$$$$

---

Here, each record is paired with measured Residual rate data.
# assay-protocol: Evaluation of conversion rate to active form in buffer solution (Experimental Example 1)
# Format: physicochemical
# conditions-used: pH6.0, 0 hr, 37° C., 25 umol/L in buffer solution

>  <molecule>
CN1CC[C@H](c2c(OC(=O)N(C)C[C@H]3CCCCN3)cc(O)c3c(=O)cc(-c4ccccc4Cl)oc23)[C@H](O)C1

>  <Residual rate (%)>
99.3

$$$$
>  <molecule>
CCN(C[C@@H]1CCCCN1)C(=O)Oc1cc(O)c2c(=O)cc(-c3ccccc3Cl)oc2c1[C@H]1CCN(C)C[C@H]1O [Example 1, ditrifluoroacetate]

>  <Residual rate (%)>
99.2

$$$$
>  <molecule>
CCCN(C[C@@H]1CCCCN1)C(=O)Oc1cc(O)c2c(=O)cc(-c3ccccc3Cl)oc2c1[C@H]1CCN(C)C[C@H]1O

>  <Residual rate (%)>
98.7

$$$$
>  <molecule>
CN1CC[C@H](c2c(OC(=O)N(CCF)CC3CCCCN3)cc(O)c3c(=O)cc(-c4ccccc4Cl)oc23)[C@H](O)C1 (stereo partly shown)

>  <Residual rate (%)>
83.7

$$$$
